Values were extracted from ChEMBL document CHEMBL4411316.

Biological target: Polyunsaturated fatty acid 5-lipoxygenase (Homo sapiens)
Sequence (whole entry): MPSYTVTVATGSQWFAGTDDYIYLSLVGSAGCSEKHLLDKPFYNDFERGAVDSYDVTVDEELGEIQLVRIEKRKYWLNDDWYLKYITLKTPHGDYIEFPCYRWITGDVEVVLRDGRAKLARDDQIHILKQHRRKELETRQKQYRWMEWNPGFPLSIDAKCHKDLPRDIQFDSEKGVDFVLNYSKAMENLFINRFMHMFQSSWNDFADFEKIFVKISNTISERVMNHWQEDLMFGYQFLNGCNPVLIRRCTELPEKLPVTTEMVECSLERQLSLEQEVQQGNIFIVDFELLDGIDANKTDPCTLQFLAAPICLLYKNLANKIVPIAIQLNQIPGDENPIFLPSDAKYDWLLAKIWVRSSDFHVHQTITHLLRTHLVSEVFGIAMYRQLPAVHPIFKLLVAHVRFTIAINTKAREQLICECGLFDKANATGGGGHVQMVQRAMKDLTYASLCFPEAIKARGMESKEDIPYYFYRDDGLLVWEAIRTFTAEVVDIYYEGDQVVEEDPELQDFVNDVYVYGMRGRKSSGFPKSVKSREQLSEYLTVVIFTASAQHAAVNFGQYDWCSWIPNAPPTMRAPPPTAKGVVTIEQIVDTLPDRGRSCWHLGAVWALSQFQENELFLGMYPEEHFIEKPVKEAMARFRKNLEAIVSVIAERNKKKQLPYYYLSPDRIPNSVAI
Assay: Inhibition of recombinant human 5-LOX pseudoperoxidase activity expressed in Escherichia coli BL21 assessed as compound redox activity by measuring reduction in absorption at 10 uM using 13(S)-HpODE as substrate by UV-vis spectrophotometric method relative to control
Set-up: scale not given: the % may be the effect or the level left
Calls of active or inactive are those of the source. No cut-off for these calls is given here.
assay.metric: Activity

{"chemical.string": "O=C(/C=C/C=C/c1cc(O)c(O)c(O)c1)N1CCCCC1", "result": "50.8%"}
{"chemical.string": "O=C(/C=C/C=C/c1ccc(O)c(O)c1)N1CCCCC1", "result": "57.4%"}
{"chemical.string": "COc1cc(OC)c(/C=C/C=C/C(=O)N2CCCCC2)c(OC)c1", "result": "inactive"}
{"chemical.string": "O=C(/C=C/C=C/C=C/c1ccc2c(c1)OCO2)N1CCCCC1", "result": "inactive"}
